Data provenance: patent US20160297889A1

Biological target: T1, CAPRIN-1 protein expressed on the membrane surface of human cancer cells (human, UniProt Q14444 2-709)
T1 sequence (looked up): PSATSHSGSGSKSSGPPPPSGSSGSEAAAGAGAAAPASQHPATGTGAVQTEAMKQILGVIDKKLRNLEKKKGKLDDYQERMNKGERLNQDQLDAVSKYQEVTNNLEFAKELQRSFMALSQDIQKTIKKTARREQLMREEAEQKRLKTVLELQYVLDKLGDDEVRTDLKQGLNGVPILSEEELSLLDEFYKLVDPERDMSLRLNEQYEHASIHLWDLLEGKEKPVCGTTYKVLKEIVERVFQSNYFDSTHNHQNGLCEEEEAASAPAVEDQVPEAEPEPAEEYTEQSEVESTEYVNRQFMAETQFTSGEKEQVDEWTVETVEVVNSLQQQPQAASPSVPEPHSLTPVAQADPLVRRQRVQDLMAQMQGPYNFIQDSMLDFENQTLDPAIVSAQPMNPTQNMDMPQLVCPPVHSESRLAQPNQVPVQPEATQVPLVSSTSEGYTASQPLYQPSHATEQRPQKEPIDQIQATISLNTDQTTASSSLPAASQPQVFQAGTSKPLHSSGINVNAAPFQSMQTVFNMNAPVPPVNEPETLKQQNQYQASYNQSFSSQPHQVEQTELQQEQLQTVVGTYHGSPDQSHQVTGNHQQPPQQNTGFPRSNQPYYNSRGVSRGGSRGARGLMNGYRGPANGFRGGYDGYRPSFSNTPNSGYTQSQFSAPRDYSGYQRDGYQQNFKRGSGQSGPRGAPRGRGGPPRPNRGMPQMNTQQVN
Assay: cell-based or functional assay
The entries below come with measured ADCC cytotoxic activity (51Cr release) on RD-ES values attached.

- Binder: "humanized antibody #10 (antibody, V domains shown) VH: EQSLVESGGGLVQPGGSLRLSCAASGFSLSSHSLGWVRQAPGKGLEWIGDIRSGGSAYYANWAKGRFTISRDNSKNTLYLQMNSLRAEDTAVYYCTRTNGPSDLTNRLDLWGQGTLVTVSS VL: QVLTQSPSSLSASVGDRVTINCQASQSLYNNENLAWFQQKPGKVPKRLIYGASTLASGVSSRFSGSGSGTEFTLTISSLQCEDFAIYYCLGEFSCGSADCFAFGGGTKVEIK"
  Measured Result: "≥ 48%"
- Binder: "humanized antibody #9 (antibody, V domains shown) VH: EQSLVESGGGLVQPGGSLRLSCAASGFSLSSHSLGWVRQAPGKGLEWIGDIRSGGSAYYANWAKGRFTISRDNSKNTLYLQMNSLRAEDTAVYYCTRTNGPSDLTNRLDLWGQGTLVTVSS VL: DIVLTQSPSSLSASVGDRVTINCQASQSLYNNENLAWFQQKPGKVPKRLIYGASTLASGVSSRFSGSGSGTEFTLTISSLQCEDFAIYYCLGEFSCGSADCFAFGGGTKVEIK"
  Measured Result: "≥ 31%"

Continue with the next binder.
So for humanized antibody #3 (antibody, V domains shown) VH: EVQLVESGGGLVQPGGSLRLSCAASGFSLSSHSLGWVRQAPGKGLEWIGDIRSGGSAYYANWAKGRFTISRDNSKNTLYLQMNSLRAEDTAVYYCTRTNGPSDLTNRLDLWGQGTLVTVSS VL: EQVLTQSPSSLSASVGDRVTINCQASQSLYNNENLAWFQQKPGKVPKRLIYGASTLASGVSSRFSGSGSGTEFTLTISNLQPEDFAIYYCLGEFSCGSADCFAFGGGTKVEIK , the logged ADCC cytotoxic activity (51Cr release) on RD-ES turned out to be ≥ 40%
